Where do the numbers come from? From patent US11554171B2.

In this section we review reported Emax values for a set of molecules.
- Test system: c-myc in 22RV-1 cells
- assay.method.text: Human c-myc ELISA assay
- Assay type: cell-based
- experimental.setup: Homo sapiens, 22Rv1, 18 h, read-out: Degradation of BRD4: Maximum inhibition (%) c-Myc ELISA in 22RV1 cells
Could you give me the number in %? Just the number is fine.

Ask: Entry under review: Cc1ncsc1-c1ccc(CNC(=O)[C@@H]2C[C@@H](O)CN2C(=O)[C@@H](NC(=O)COCCCOCC#Cc2ccc([C@H](C)NC(=O)C[C@@H]3N=C(c4ccc(Cl)cc4)c4c(sc(C)c4C)-n4c(C)nnc43)cc2)C(C)(C)C)cc1 [Example 40] . Reported Emax?
Reply: 97.5

Ask: Now give it for Cc1ncsc1-c1ccc([C@H](C)NC(=O)[C@@H]2C[C@@H](O)CN2C(=O)[C@@H](NC(=O)COc2ccc(O[C@@H](C)CNC(=O)C[C@@H]3N=C(c4ccc(Cl)cc4)c4c(sc(C)c4C)-n4c(C)nnc43)cc2)C(C)(C)C)cc1 [Example 135] too.
Reply: 99

Ask: Now give it for Cc1ncoc1-c1ccc([C@H](C)NC(=O)[C@@H]2C[C@@H](O)CN2C(=O)[C@@H](C(C)C)n2cc(-c3cccc(O[C@H]4C[C@@H](NC(=O)C[C@@H]5N=C(c6ccc(Cl)cc6)c6c(sc(C)c6C)-n6c(C)nnc65)C4)c3)cn2)cc1 [Example 285] too.
Reply: 44.4

Ask: Now give it for Cc1ncsc1-c1ccc(CNC(=O)[C@@H]2C[C@@H](O)CN2C(=O)[C@@H](NC(=O)COCCCCCCNC(=O)C[C@@H]2N=C(c3ccc(Cl)cc3)c3c(sc(C)c3C)-n3c(C)nnc32)C(C)(C)C)cc1 [Example 82] too.
Reply: 100

Ask: Now give it for Cc1ncsc1-c1ccc([C@H](C)NC(=O)[C@@H]2C[C@@H](O)CN2C(=O)[C@@H](NC(=O)/C=C/c2ccc(F)c(O[C@@H](C)CNC(=O)C[C@@H]3N=C(c4ccc(Cl)cc4)c4c(sc(C)c4C)-n4c(C)nnc43)c2)C(C)(C)C)cc1 [Example 160] too.
Reply: 94.5

Ask: Now give it for Cc1ncsc1-c1ccc(CNC(=O)[C@@H]2C[C@@H](O)CN2C(=O)[C@@H](NC(=O)COCCOCCOCCCCOc2ccc3c(c2)c2c(C(N)=O)cc(-c4c(C)noc4C)cc2n3Cc2ccccc2)C(C)(C)C)cc1 [Example 152] too.
Reply: 95

Ask: Now give it for C=Cc1ccc(C2=N[C@@H](CC(=O)Nc3ccc(OCCCOCCCOCC(=O)N[C@H](C(=O)N4C[C@H](O)C[C@H]4C(=O)NCc4ccc(-c5scnc5C)cc4)C(C)(C)C)cc3)c3nnc(C)n3-c3sc(C)c(C)c32)cc1 [Example 63] too.
Reply: 98.5

Ask: Now give it for Cc1ncsc1-c1ccc([C@H](CO)NC(=O)[C@@H]2C[C@@H](O)CN2C(=O)[C@@H](NC(=O)CN2CCC(O[C@H]3C[C@H](NC(=O)C[C@@H]4N=C(c5ccc(Cl)cc5)c5c(sc(C)c5C)-n5c(C)nnc54)C3)CC2)C(C)(C)C)cc1 [Example 351] too.
Reply: 100

Ask: Now give it for Cc1ncsc1-c1ccc(CNC(=O)[C@@H]2C[C@@H](O)CN2C(=O)[C@@H](NC(=O)COCCN2CCC(NC(=O)C[C@@H]3N=C(c4ccc(Cl)cc4)c4c(sc(C)c4C)-n4c(C)nnc43)CC2)C(C)(C)C)cc1 [Example 79] too.
Reply: 50.8

Ask: Now give it for Cc1ncsc1-c1ccc(CNC(=O)[C@@H]2C[C@@H](O)CN2C(=O)[C@@H](NC(=O)c2cccc(CCOCCNC(=O)C[C@@H]3N=C(c4ccc(Cl)cc4)c4c(sc(C)c4C)-n4c(C)nnc43)n2)C(C)(C)C)cc1 [Example 164] too.
Reply: 96

Ask: Now give it for Cc1sc2c(c1C)C(c1ccc(Cl)cc1)=N[C@@H](CC(=O)NCCOCCCOCC(=O)N[C@H](C(=O)N1C[C@H](O)C[C@H]1C(=O)NCc1ccc(C#N)cc1)C(C)(C)C)c1nnc(C)n1-2 [Example 75] too.
Reply: 58.5

Ask: Now give it for Cc1ncsc1-c1ccc(CNC(=O)[C@@H]2C[C@@H](O)CN2C(=O)[C@@H](C(C)C)n2cc(-c3ccnc(O[C@@H](C)CNC(=O)C[C@@H]4N=C(c5ccc(Cl)cc5)c5c(sc(C)c5C)-n5c(C)nnc54)c3)cn2)cc1 [Example 179] too.
Reply: 13.9

Ask: Now give it for Cc1ncsc1-c1ccc([C@H](C)NC(=O)[C@@H]2C[C@@H](O)CN2C(=O)[C@@H](NC(=O)Cc2ccc(O[C@H]3C[C@H](NC(=O)C[C@@H]4N=C(c5ccc(Cl)cc5)c5c(sc(C)c5C)-n5c(C)nnc54)C3)cc2)C(C)C)cc1 [Example 280] too.
Reply: 95.4

Ask: Now give it for Cc1ncsc1-c1ccc([C@H](C)NC(=O)[C@@H]2C[C@@H](O)CN2C(=O)[C@H](C(C)C)n2cc(-c3ccnc(O[C@H]4C[C@@H](NC(=O)C[C@@H]5N=C(c6ccc(Cl)cc6)c6c(sc(C)c6C)-n6c(C)nnc65)C4)c3)cn2)cc1 [Example 219] too.
Reply: 95.5

Ask: Now give it for Cc1ncsc1-c1ccc([C@H](C)NC(=O)[C@@H]2C[C@@H](O)CN2C(=O)[C@@H](NC(=O)c2cc3cc(O[C@@H](C)CNC(=O)C[C@@H]4N=C(c5ccc(Cl)cc5)c5c(sc(C)c5C)-n5c(C)nnc54)ccc3o2)C(C)(C)C)cc1 [Example 205] too.
Reply: 91

* * *

- Test system: c-myc in 22RV-1 cells
- assay.method.text: Human c-myc ELISA assay
- Format: cell-based
- experimental.setup: Homo sapiens, 22Rv1, 18 h, read-out: Degradation of BRD4: Maximum inhibition (%) c-Myc ELISA in 22RV1 cells
observation.type: Emax (%)
Could you give me the number in %? Just the number is fine.

Illustrative cases are given below, each with its answer.
# compound, Emax, %
data = [
    ("Cc1ncsc1-c1ccc(CNC(=O)[C@@H]2C[C@@H](O)CN2C(=O)[C@H](C(C)C)n2cc(-c3cccc(O[C@H](C)CNC(=O)C[C@@H]4N=C(c5ccc(Cl)cc5)c5c(sc(C)c5C)-n5c(C)nnc54)c3)cn2)cc1", 83),
    ("Cc1ncsc1-c1ccc(CNC(=O)[C@@H]2C[C@@H](O)CN2C(=O)[C@@H](c2cnn(CCCOCCNC(=O)C[C@@H]3N=C(c4ccc(Cl)cc4)c4c(sc(C)c4C)-n4c(C)nnc43)c2)C(C)C)cc1", 73),
    ("Cc1ncsc1-c1ccc(CNC(=O)[C@@H]2C[C@@H](O)CN2C(=O)[C@@H](c2cc(OCCN3CC[C@@H](NC(=O)C[C@@H]4N=C(c5ccc(Cl)cc5)c5c(sc(C)c5C)-n5c(C)nnc54)C3)no2)C(C)C)cc1 (single isomer, unassigned)", 87.5),
]

Ask: Entry under review: Cc1ncsc1-c1ccc(CNC(=O)[C@@H]2C[C@@H](O)CN2C(=O)[C@@H](NC(=O)COCCCOCCCOc2ccc(NC(=O)C[C@@H]3N=C(c4ccccc4)c4c(sc(C)c4C)-n4c(C)nnc43)cc2)C(C)(C)C)cc1 . Reported Emax?
Reply: 100

* * *

- System: c-myc in 22RV-1 cells
- assay.method.text: Human c-myc ELISA assay
- Format: cell-based
- experimental.setup: Homo sapiens, 22Rv1, 18 h, read-out: Degradation of BRD4: Maximum inhibition (%) c-Myc ELISA in 22RV1 cells
observation.type: Emax (%)
Could you give me the number in %? Just the number is fine.

# molecule, system.name, unit.string, Emax
rows = [
    ("Cc1ncsc1-c1ccc(CNC(=O)[C@@H]2C[C@@H](O)CN2C(=O)[C@@H](NC(=O)COCCc2cccc(CNC(=O)C[C@@H]3N=C(c4ccc(Cl)cc4)c4c(sc(C)c4C)-n4c(C)nnc43)c2)C(C)(C)C)cc1 [Example 69]", "c-myc in 22RV-1 cells", "%", 93.4),
    ("CC(=O)N[C@H](C(=O)N1C[C@H](O)C[C@H]1C(=O)NCc1ccc(-c2scnc2C)cc1OCCOCCOc1ccc(C2=NC(CC(=O)Nc3ccccc3)c3nnc(C)n3-c3sc(C)c(C)c32)cc1)C(C)(C)C (some centres unmarked) [Example 149]", "c-myc in 22RV-1 cells", "%", 57.3),
    ("CNC[C@@H](NC(=O)[C@@H]1C[C@@H](O)CN1C(=O)[C@@H](NC(=O)COCCCOCCNC(=O)C[C@@H]1N=C(c2ccc(Cl)cc2)c2c(sc(C)c2C)-n2c(C)nnc21)C(C)(C)C)c1ccc(-c2scnc2C)cc1 [Example 111]", "c-myc in 22RV-1 cells", "%", 47.3),
]

Ask: Entry under review: Cc1ncsc1-c1ccc([C@H](C)NC(=O)[C@@H]2C[C@@H](O)CN2C(=O)[C@@H](NC(=O)[C@@H](C)OCCCOCCNC(=O)C[C@@H]2N=C(c3ccc(Cl)cc3)c3c(sc(C)c3C)-n3c(C)nnc32)C(C)(C)C)cc1 [Example 154] . Reported Emax?
Reply: 94.5

Ask: Now give it for [2H]C([2H])([2H])C([C@H](NC(=O)c1cc2cc(O[C@H]3C[C@@H](NC(=O)C[C@@H]4N=C(c5ccc(Cl)cc5)c5c(sc(C)c5C)-n5c(C)nnc54)C3)ccc2o1)C(=O)N1C[C@H](O)C[C@H]1C(=O)N[C@@H](C)c1ccc(-c2scnc2C)cc1)(C([2H])([2H])[2H])C([2H])([2H])[2H] [Example 364] too.
Reply: 100

Ask: Now give it for Cc1ncsc1-c1ccc(CNC(=O)[C@@H]2C[C@@H](O)CN2C(=O)[C@@H](NC(=O)COCCO[C@H]2C[C@@H](NC(=O)C[C@@H]3N=C(c4ccc(Cl)cc4)c4c(sc(C)c4C)-n4c(C)nnc43)C2)C(C)(C)C)cc1 [Example 138] too.
Reply: 89.4

Ask: Now give it for Cc1ncoc1-c1ccc([C@H](C)NC(=O)[C@@H]2C[C@@H](O)CN2C(=O)C(C(C)C)n2cc(-c3cccc(O[C@H]4C[C@@H](NC(=O)C[C@@H]5N=C(c6ccc(Cl)cc6)c6c(sc(C)c6C)-n6c(C)nnc65)C4)c3)cn2)cc1 (some centres unmarked) [Example 286] too.
Reply: 93
